Tested on: OVCAR-8
Test: NCI tumour cell line growth inhibition, 48 h
The source made the active and inactive calls. Rule as the data show it: active = GI50 up to about 1.1 µM and inactive = higher.
Your response should consist of one outcome taken from 1 (yes) (active), 0 (no) (inactive)

Use the examples below as a reference point.
[[record]]
compound = "CN1C(c2ccccc2)CC(C)(O)CC1c1ccccc1 (centres undefined)"
target_or_system = "OVCAR-8"
class_label = "0 (no)"

[[record]]
compound = "CCC1(O)CC(OC2CC(N(C)C)C(OC3CC(O)C(OC4OC(C)C(=O)C=C4N)C(C)O3)C(C)O2)c2c(cc3c(c2O)C(=O)c2c(O)cccc2C3=O)C1C(=O)OC (centres undefined)"
target_or_system = "OVCAR-8"
class_label = "1 (yes)"

[[record]]
compound = "O=C(O)C1C2OC(C(Br)C2Br)C1C(=O)O (centres undefined)"
target_or_system = "OVCAR-8"
class_label = "0 (no)"


In: Which outcome did this test record for the compound C[P+](C)(C)c1ccccc1 ?
Out: 0 (no)

In: Which outcome did this test record for the compound C/C(=N\N(C)C)c1sc(-n2nc(-c3ccccc3)cc2-c2ccccc2)nc1C ?
Out: 0 (no)

In: Which outcome did this test record for the compound CC(=O)OCCCC(NC(=O)OC(C)(C)C)C(=O)NC(CCCOC(C)=O)C(=O)NC(Cc1ccc([N+](=O)[O-])cc1)C(=O)NCC(=O)OCc1ccccc1 (centres undefined) ?
Out: 0 (no)

----------
System: K562
Assay: NCI tumour cell line growth inhibition, 48 h
Calls of active or inactive are those of the source. Rule as the data show it: active = GI50 up to about 1.1 µM and inactive = higher.
Your response should consist of one outcome taken from t = active, f = inactive

Use the examples below as a reference point.
[[record]]
compound = "Cc1ccc(OCC2OC(C#N)C(Oc3ccc(C)cc3)C2Oc2ccc(C)cc2)cc1 (centres undefined)"
target_or_system = "K562"
class_label = "f"

[[record]]
compound = "CCC1(O)CC(OC2CC(N(C)C)C(OC3CC(O)C(OC4OC(C)C(=O)C=C4N)C(C)O3)C(C)O2)c2c(cc3c(c2O)C(=O)c2c(O)cccc2C3=O)C1C(=O)OC (centres undefined)"
target_or_system = "K562"
class_label = "t"


In: Which outcome did this test record for the compound CC(C)OC(=O)c1cc(NC(=S)OC(C)C)ccc1Cl ?
Out: f

In: Which outcome did this test record for the compound CN1CN(c2ccccc2)C2(CCN(CCCCCCF)CC2)C1=O ?
Out: f

----------
Test system: UO-31
Assay: NCI tumour cell line growth inhibition, 48 h
Active and inactive are the calls of the source. Cut-off read from the data, not from the text of the source: active = GI50 up to about 1.1 µM and inactive = higher.
Your response should consist of one outcome taken from class 1 = active, class 0 = inactive

Use the examples below as a reference point.
[[record]]
compound = "CC(=O)Nc1cc(/C=C\\C(=O)N2CC(CCl)c3c2cc(N)c2ccccc32)n(C)n1 (stereo unspecified)"
class_label = "class 1"

[[record]]
compound = "NC1(c2cc3ccccc3s2)CCCC1"
class_label = "class 0"

[[record]]
compound = "CC(C)(C)C(=O)/C=C/c1ccc(Oc2ccccc2)cc1"
class_label = "class 0"

[[record]]
compound = "COC(=O)CSC1CC(=O)c2c(Cl)sc(Cl)c21 (stereo unspecified)"
class_label = "class 0"

[[record]]
compound = "Ic1ncnc2c1ncn2C1CCCO1 (stereo unspecified)"
class_label = "class 0"


In: Which outcome did this test record for the compound CCOC(=O)/C=C(\C(=O)OCC)n1ccc(=O)n(Cc2cn(CCCCOC(C)=O)nn2)c1=O ?
Out: class 0
